Taken from patent US20250270319A1.

target: human CD33 on primary human dendritic cells (human, UniProt P20138 18-364); experiment: cell-based or functional assay
Sequence (P20138 18-364): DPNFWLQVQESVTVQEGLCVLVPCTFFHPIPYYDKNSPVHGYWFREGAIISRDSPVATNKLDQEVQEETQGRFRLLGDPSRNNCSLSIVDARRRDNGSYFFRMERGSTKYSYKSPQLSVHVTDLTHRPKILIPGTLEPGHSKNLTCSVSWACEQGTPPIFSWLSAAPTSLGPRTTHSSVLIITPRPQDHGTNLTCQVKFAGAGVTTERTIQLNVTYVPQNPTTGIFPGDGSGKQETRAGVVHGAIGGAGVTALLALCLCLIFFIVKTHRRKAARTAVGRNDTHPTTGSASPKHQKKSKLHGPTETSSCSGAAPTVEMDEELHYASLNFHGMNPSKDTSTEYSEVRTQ
Listed next: entries and their corresponding Maximal reduction in CD33 (% remaining).
Numeric answer only, unit % remaining assumed.

Example entries and their recorded answers appear below.
anti-CD33 antibody 6C7H24 (antibody, V domains shown, VH/VL only) VH: EVQLVESGGGLVQPGGSLRLSCAGSGFTFSNYNMNWVRQAPGKGLEWVAEIRLKSNNYVTNYAASVKGRFTISRDDSKNSVYLQMNSLKTEDTGVYYCTRAGYYVPFAYWGQGTLVTVSS VL: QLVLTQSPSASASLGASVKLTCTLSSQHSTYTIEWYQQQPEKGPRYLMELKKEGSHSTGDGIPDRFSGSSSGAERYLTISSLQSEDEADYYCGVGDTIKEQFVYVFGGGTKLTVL : 22.5
anti-CD33 antibody 6C7H15 (antibody, V domains shown, VH/VL only) VH: EVQLVESGGGLVQPGGSLRLSCAGSGFTFSNYSMNWVRQAPGKGLEWVAEIRLKSNNYVTNYAASVKGRFTISRDDSKNSVYLQMNSLKTEDTGVYYCTRAGYYVPFAYWGQGTLVTVSS VL: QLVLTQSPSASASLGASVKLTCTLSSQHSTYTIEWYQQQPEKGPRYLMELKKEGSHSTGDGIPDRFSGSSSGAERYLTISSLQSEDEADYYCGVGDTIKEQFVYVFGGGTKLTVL : 27.7
anti-CD33 antibody 6C7H17 (antibody, V domains shown, VH/VL only) VH: EVQLVESGGGLVQPGGSLRLSCAGSGFTFSNYYMNWVRQAPGKGLEWVAEIRLKSNNYVTNYAASVKGRFTISRDDSKNSVYLQMNSLKTEDTGVYYCTRAGYYVPFAYWGQGTLVTVSS VL: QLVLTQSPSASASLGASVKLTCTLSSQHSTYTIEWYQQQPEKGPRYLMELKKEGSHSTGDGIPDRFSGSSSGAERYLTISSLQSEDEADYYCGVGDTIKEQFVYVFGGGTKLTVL : 32.1
anti-CD33 antibody 6C7H21 (antibody, V domains shown, VH/VL only) VH: EVQLVESGGGLVQPGGSLRLSCAGSGFTFSNYQMNWVRQAPGKGLEWVAEIRLKSNNYVTNYAASVKGRFTISRDDSKNSVYLQMNSLKTEDTGVYYCTRAGYYVPFAYWGQGTLVTVSS VL: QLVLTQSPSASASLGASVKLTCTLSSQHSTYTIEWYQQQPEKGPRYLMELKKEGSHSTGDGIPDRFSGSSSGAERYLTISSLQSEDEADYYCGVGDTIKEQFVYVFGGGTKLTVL : 28.3

Quick one: give measured Maximal reduction in CD33 (% remaining) for anti-CD33 antibody 6C7H10 (antibody, IgG1, V domains shown, VH/VL only; also called 6C7H10 IgG1) VH: EVQLVESGGGLVQPGGSLRLSCAASGFTFSEYAMNWVRQAPGKGLEWVGEIRLKSNNYVTNYAASVKGRFTISRDDSKNSVYLQMNSLKTEDTGVYYCTRAGYYVPFAYWGQGTLVTVSS VL: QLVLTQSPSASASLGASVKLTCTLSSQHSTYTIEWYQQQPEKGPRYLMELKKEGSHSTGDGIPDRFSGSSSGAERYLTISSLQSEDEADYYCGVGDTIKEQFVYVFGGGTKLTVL
21.2
